# Test system: Aspergillus flavus
# MEASUREMENT_NOTES: Antifungal activity against Aspergillus flavus at 50 ug/ml after 72 hrs by agar well diffusion method
# Type: functional
# TEST_PARAMETERS: read-out: DIZ
A collection of compounds and their measured zone of inhibition at 50 µg/mL

RECORD_SMILES: Cn1cc(C=C2C(=O)OC(C)(C)OC2=O)c2cc(Br)ccc21
zone of inhibition at 50 µg/mL / mm: 4
//
RECORD_SMILES: COc1ccc2c(c1)c(C=C1C(=O)OC(C)(C)OC1=O)cn2C
zone of inhibition at 50 µg/mL / mm: 4
//
RECORD_SMILES: CC1(C)OC(=O)C(=Cc2c[nH]c3ccccc23)C(=O)O1
zone of inhibition at 50 µg/mL / mm: 5
//
RECORD_SMILES: CC1(C)OC(=O)C(=Cc2c[nH]c3ccc([N+](=O)[O-])cc23)C(=O)O1
zone of inhibition at 50 µg/mL / mm: 5
//
RECORD_SMILES: CC1(C)OC(=O)C(=Cc2c[nH]c3ccc(Br)cc23)C(=O)O1
zone of inhibition at 50 µg/mL / mm: 5
//
RECORD_SMILES: CCn1cc(C=C2C(=O)OC(C)(C)OC2=O)c2cc(Br)ccc21
zone of inhibition at 50 µg/mL / mm: 4
//
RECORD_SMILES: CCn1cc(C=C2C(=O)OC(C)(C)OC2=O)c2cc(OC)ccc21
zone of inhibition at 50 µg/mL / mm: 4
//
RECORD_SMILES: Cn1cc(C=C2C(=O)OC(C)(C)OC2=O)c2ccccc21
zone of inhibition at 50 µg/mL / mm: 4
//
RECORD_SMILES: Cn1cc(C=C2C(=O)OC(C)(C)OC2=O)c2cc([N+](=O)[O-])ccc21
zone of inhibition at 50 µg/mL / mm: 4
//
RECORD_SMILES: CCn1cc(C=C2C(=O)OC(C)(C)OC2=O)c2ccccc21
zone of inhibition at 50 µg/mL / mm: 4
//
RECORD_SMILES: CCn1cc(C=C2C(=O)OC(C)(C)OC2=O)c2cc([N+](=O)[O-])ccc21
zone of inhibition at 50 µg/mL / mm: 4
//
RECORD_SMILES: COc1ccc2[nH]cc(C=C3C(=O)OC(C)(C)OC3=O)c2c1
zone of inhibition at 50 µg/mL / mm: 5

---

A collection of compounds and their measured zone of inhibition at 50 µg/mL
# Tested on: Escherichia coli
# MEASUREMENT_NOTES: Antibacterial activity against Escherichia coli ATCC 8739 at 50 ug/ml after 24 hrs by agar well diffusion method
# Format: functional
# TEST_PARAMETERS: ATCC 8739, 24 h, read-out: DIZ

RECORD_SMILES: Cn1cc(C=C2C(=O)OC(C)(C)OC2=O)c2cc(Br)ccc21
READING_UNIT: mm
zone of inhibition at 50 µg/mL: 8.4
--
RECORD_SMILES: Cn1cc(C=C2C(=O)OC(C)(C)OC2=O)c2cc([N+](=O)[O-])ccc21
READING_UNIT: mm
zone of inhibition at 50 µg/mL: 8
--
RECORD_SMILES: CC1(C)OC(=O)C(=Cc2c[nH]c3ccc(Br)cc23)C(=O)O1
READING_UNIT: mm
zone of inhibition at 50 µg/mL: 10.4
--
RECORD_SMILES: CC1(C)OC(=O)C(=Cc2c[nH]c3ccccc23)C(=O)O1
READING_UNIT: mm
zone of inhibition at 50 µg/mL: 10

---

# Test system: Fusarium oxysporum
# MEASUREMENT_NOTES: Antifungal activity against Fusarium oxysporum at 500 ug/ml after 72 hrs by agar well diffusion method
# Assay type: functional
# TEST_PARAMETERS: read-out: DIZ

RECORD_SMILES: CCn1cc(C=C2C(=O)OC(C)(C)OC2=O)c2cc([N+](=O)[O-])ccc21
zone of inhibition at 500 µg/mL, mm: 29
--
RECORD_SMILES: Cn1cc(C=C2C(=O)OC(C)(C)OC2=O)c2cc([N+](=O)[O-])ccc21
zone of inhibition at 500 µg/mL, mm: 29
--
RECORD_SMILES: COc1ccc2c(c1)c(C=C1C(=O)OC(C)(C)OC1=O)cn2C
zone of inhibition at 500 µg/mL, mm: 29
--
RECORD_SMILES: COc1ccc2[nH]cc(C=C3C(=O)OC(C)(C)OC3=O)c2c1
zone of inhibition at 500 µg/mL, mm: 30
--
RECORD_SMILES: CCn1cc(C=C2C(=O)OC(C)(C)OC2=O)c2cc(OC)ccc21
zone of inhibition at 500 µg/mL, mm: 29
--
RECORD_SMILES: CC1(C)OC(=O)C(=Cc2c[nH]c3ccccc23)C(=O)O1
zone of inhibition at 500 µg/mL, mm: 31
--
RECORD_SMILES: CCn1cc(C=C2C(=O)OC(C)(C)OC2=O)c2ccccc21
zone of inhibition at 500 µg/mL, mm: 29
--
RECORD_SMILES: CC1(C)OC(=O)C(=Cc2c[nH]c3ccc(Br)cc23)C(=O)O1
zone of inhibition at 500 µg/mL, mm: 31
--
RECORD_SMILES: Cn1cc(C=C2C(=O)OC(C)(C)OC2=O)c2cc(Br)ccc21
zone of inhibition at 500 µg/mL, mm: 29
--
RECORD_SMILES: Cn1cc(C=C2C(=O)OC(C)(C)OC2=O)c2ccccc21
zone of inhibition at 500 µg/mL, mm: 29
--
RECORD_SMILES: CCn1cc(C=C2C(=O)OC(C)(C)OC2=O)c2cc(Br)ccc21
zone of inhibition at 500 µg/mL, mm: 29
--
RECORD_SMILES: CC1(C)OC(=O)C(=Cc2c[nH]c3ccc([N+](=O)[O-])cc23)C(=O)O1
zone of inhibition at 500 µg/mL, mm: 31

---

# System: Bacillus subtilis
# MEASUREMENT_NOTES: Antibacterial activity against Bacillus subtilis at 500 ug/ml after 24 hrs by agar well diffusion method
# Type: functional
# TEST_PARAMETERS: read-out: DIZ

COMPOUND: CN[C@@H]1[C@H](O[C@H]2[C@H](O[C@H]3[C@H](O)[C@@H](O)[C@H](N=C(N)N)[C@@H](O)[C@@H]3N=C(N)N)O[C@@H](C)[C@]2(O)C=O)O[C@@H](CO)[C@H](O)[C@H]1O [STREPTOMYCIN]
TESTED_ON: Bacillus subtilis
zone of inhibition at 500 µg/mL, mm: 28
--
COMPOUND: COc1ccc2c(c1)c(C=C1C(=O)OC(C)(C)OC1=O)cn2C
TESTED_ON: Bacillus subtilis
zone of inhibition at 500 µg/mL, mm: 22
--
COMPOUND: CCn1cc(C=C2C(=O)OC(C)(C)OC2=O)c2cc(Br)ccc21
TESTED_ON: Bacillus subtilis
zone of inhibition at 500 µg/mL, mm: 23
--
COMPOUND: CC1(C)OC(=O)C(=Cc2c[nH]c3ccccc23)C(=O)O1
TESTED_ON: Bacillus subtilis
zone of inhibition at 500 µg/mL, mm: 25

---

A collection of molecules and their measured MIC
# Tested on: Fusarium oxysporum
# MEASUREMENT_NOTES: Antifungal activity against Fusarium oxysporum after 72 hrs by agar well diffusion method
# Type: functional

RECORD_SMILES: CC1(C)OC(=O)C(=Cc2c[nH]c3ccc([N+](=O)[O-])cc23)C(=O)O1
MIC [µg/mL]: 25
--
RECORD_SMILES: Cn1cc(C=C2C(=O)OC(C)(C)OC2=O)c2cc([N+](=O)[O-])ccc21
MIC [µg/mL]: 35
--
RECORD_SMILES: CC1(C)OC(=O)C(=Cc2c[nH]c3ccccc23)C(=O)O1
MIC [µg/mL]: 25
--
RECORD_SMILES: CCn1cc(C=C2C(=O)OC(C)(C)OC2=O)c2cc([N+](=O)[O-])ccc21
MIC [µg/mL]: 35
--
RECORD_SMILES: CCn1cc(C=C2C(=O)OC(C)(C)OC2=O)c2cc(OC)ccc21
MIC [µg/mL]: 35
--
RECORD_SMILES: COc1ccc2[nH]cc(C=C3C(=O)OC(C)(C)OC3=O)c2c1
MIC [µg/mL]: 25
--
RECORD_SMILES: Cn1cc(C=C2C(=O)OC(C)(C)OC2=O)c2cc(Br)ccc21
MIC [µg/mL]: 35
--
RECORD_SMILES: CCn1cc(C=C2C(=O)OC(C)(C)OC2=O)c2ccccc21
MIC [µg/mL]: 35
--
RECORD_SMILES: Cn1cc(C=C2C(=O)OC(C)(C)OC2=O)c2ccccc21
MIC [µg/mL]: 35
--
RECORD_SMILES: COc1ccc2c(c1)c(C=C1C(=O)OC(C)(C)OC1=O)cn2C
MIC [µg/mL]: 35
--
RECORD_SMILES: CCn1cc(C=C2C(=O)OC(C)(C)OC2=O)c2cc(Br)ccc21
MIC [µg/mL]: 35
--
RECORD_SMILES: CC1(C)OC(=O)C(=Cc2c[nH]c3ccc(Br)cc23)C(=O)O1
MIC [µg/mL]: 25
